# target-or-system: BRM (Homo sapiens, UniProt P51531)
# Construct: In-Cell Western Screen of BRM Degradation in SW1573 Cells; endogenous in cells; host or cells: SW1573
# Sequence (P51531 whole entry): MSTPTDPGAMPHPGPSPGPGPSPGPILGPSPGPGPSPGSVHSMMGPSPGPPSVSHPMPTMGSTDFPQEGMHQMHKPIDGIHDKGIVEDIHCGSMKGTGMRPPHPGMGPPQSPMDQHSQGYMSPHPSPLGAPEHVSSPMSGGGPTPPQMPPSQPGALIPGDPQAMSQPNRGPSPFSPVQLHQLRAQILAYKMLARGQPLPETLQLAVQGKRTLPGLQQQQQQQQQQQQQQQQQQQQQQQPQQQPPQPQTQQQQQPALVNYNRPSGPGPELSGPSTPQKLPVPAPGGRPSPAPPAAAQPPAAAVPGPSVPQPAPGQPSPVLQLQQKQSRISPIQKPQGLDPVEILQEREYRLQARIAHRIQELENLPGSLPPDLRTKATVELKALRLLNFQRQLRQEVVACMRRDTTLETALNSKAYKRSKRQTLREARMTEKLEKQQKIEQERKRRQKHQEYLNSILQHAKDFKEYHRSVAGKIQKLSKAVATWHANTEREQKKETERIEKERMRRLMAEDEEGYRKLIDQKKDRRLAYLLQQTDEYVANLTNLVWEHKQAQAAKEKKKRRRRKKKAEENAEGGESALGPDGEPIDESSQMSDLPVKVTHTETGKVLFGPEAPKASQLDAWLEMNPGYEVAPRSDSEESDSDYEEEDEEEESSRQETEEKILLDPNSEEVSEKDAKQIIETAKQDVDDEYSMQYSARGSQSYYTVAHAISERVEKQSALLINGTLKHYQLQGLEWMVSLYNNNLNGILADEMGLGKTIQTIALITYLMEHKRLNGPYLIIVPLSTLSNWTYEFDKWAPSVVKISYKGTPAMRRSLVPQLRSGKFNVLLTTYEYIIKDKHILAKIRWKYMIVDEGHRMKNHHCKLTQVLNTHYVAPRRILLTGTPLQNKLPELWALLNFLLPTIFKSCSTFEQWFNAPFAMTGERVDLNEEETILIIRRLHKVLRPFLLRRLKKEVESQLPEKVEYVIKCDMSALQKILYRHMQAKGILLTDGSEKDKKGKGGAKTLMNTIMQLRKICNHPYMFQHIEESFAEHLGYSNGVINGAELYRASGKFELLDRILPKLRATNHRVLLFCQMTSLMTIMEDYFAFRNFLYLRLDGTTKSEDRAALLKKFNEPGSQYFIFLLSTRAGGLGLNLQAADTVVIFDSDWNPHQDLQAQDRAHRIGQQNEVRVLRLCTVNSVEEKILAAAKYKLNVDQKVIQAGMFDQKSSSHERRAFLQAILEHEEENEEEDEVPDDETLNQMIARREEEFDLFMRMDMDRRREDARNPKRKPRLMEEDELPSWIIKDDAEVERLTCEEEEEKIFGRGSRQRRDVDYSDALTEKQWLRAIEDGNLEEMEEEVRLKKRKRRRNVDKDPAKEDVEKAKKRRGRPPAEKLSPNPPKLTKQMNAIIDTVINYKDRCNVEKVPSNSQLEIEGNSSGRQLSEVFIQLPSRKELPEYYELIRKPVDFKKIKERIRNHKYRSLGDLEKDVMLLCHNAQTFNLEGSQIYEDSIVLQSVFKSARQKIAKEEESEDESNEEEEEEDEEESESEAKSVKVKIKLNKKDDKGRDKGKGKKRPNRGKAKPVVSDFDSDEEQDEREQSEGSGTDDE
# assay-overview: In-cell Western screen of BRM degradation in SW1573 cells (Dmax and DC50)
# Format: cell-based
# condition-summary: BRM degradation, SW1573 cells; read-out: Dmax (% degraded)
recorded-endpoint: Dmax

Below, each entry is followed by its recorded Dmax result.
>>> result("C#Cc1ccc([C@H](C)NC(=O)[C@@H]2C[C@@H](O)CN2C(=O)[C@@H](c2cc(N3CCC(CN4CCC(O[C@H]5C[C@H](Oc6cc(N7C8CCC7CN(c7cc(-c9ccccc9O)nnc7N)C8)ccn6)C5)CC4)CC3)no2)C(C)C)cc1 [compound 678]")
"> 75%"
>>> result("Cc1ncsc1-c1ccc([C@H](CCC#N)NC(=O)[C@@H]2C[C@@H](O)CN2C(=O)[C@@H](c2cc(N3CCC(CN4CCC(O[C@H]5C[C@H](Oc6cc(N7C8CCC7CN(c7cc(-c9ccccc9O)nnc7N)C8)ccn6)C5)CC4)CC3)no2)C(C)C)cc1 [compound 672]")
"> 75%"
>>> result("Cc1ncoc1-c1ccc([C@H](C)NC(=O)[C@@H]2C[C@@H](O)CN2C(=O)[C@@H](c2cc(N3CCC(CN4CCC(O[C@H]5C[C@H](Oc6cc(N7C8CCC7CN(c7cc(-c9ccccc9O)nnc7N)C8)ccn6)C5)CC4)CC3)no2)C(C)C)cc1 [compound 674]")
"> 75%"

In the following, a different molecule is considered.
Item: Cc1ncsc1-c1ccc([C@H](C)NC(=O)[C@@H]2C[C@@H](O)CN2C(=O)[C@H](c2cc(N3CCC(N4CCC(O[C@H]5C[C@H](Oc6cc(N7C8CCC7CN(c7cc(-c9ccccc9O)nnc7N)C8)ccn6)C5)CC4)CC3)no2)C(C)C)cc1 [compound 684] Test system: BRM (Homo sapiens, UniProt P51531) Read-out: Dmax Value: ?
50 to 75%

###

# target-or-system: BRM (Homo sapiens)
# Construct: In-Cell Western Screen of BRM Degradation in SW1573 Cells; endogenous in cells; host or cells: SW1573
# assay-overview: In-cell Western screen of BRM degradation in SW1573 cells (Dmax and DC50)
# Assay type: cell-based
# condition-summary: target protein degradation; read-out: BRM DC50
recorded-endpoint: DC50

>>> result("Cc1ncsc1-c1ccc([C@H](C)NC(=O)[C@@H]2C[C@@H](O)CN2C(=O)[C@H](c2cc(OC/C=C/c3ncc(O[C@H]4C[C@H](Oc5cc(N6C7CCC6CN(c6cc(-c8ccccc8O)nnc6N)C7)ccn5)C4)cn3)no2)C(C)C)cc1")
"> 30 nM"
>>> result("Cc1ncsc1-c1ccc([C@H](C)NC(=O)[C@@H]2C[C@@H](O)CN2C(=O)[C@@H](c2cc(OCCOCCOc3cc(N4C5CCC4CN(c4cc(-c6ccccc6O)nnc4N)C5)ccn3)no2)C(C)C)cc1")
"< 2.5 nM"
>>> result("Cc1ncsc1-c1ccc([C@H](C)NC(=O)[C@@H]2C[C@@H](O)CN2C(=O)[C@@H](c2cc(OCCN3CCC(O[C@H]4C[C@H](Oc5nccc(N6C7CCC6CN(c6cc(-c8ccccc8O)nnc6N)C7)n5)C4)CC3)no2)C(C)C)cc1")
"< 2.5 nM"

Answer for every listed entry: what is its DC50? The entries follow.
1. Cc1ncsc1-c1ccc([C@H](C)NC(=O)[C@@H]2C[C@@H](O)CN2C(=O)[C@H](c2cc(N3CCN(CC4CCN(C[C@H]5C[C@H](Oc6cc(N7C8CCC7CN(c7cc(-c9ccccc9O)nnc7N)C8)ccn6)C5)CC4)CC3)no2)C(C)C)cc1
2. Cc1ncsc1-c1ccc([C@H](C)NC(=O)C2C[C@@H](O)CN2C(=O)[C@@H](c2onc(OCCN3CCC(O[C@H]4C[C@H](Oc5cc(N6C7CCC6CN(c6cc(-c8ccccc8O)nnc6N)C7)ccn5)C4)CC3)c2Cl)C(C)C)cc1 (some centres unmarked)
3. Cc1ncsc1-c1ccc([C@H](C)NC(=O)[C@@H]2C[C@@H](O)CN2C(=O)[C@H](c2cc(OCCN3CCC(O[C@H]4C[C@H](Oc5cc(N6C7CCC6CN(c6cc(-c8ccccc8O)nnc6N)C7)ccn5)C4)CC3)no2)C(C)C)nc1
4. Cc1ncsc1-c1ccc([C@H](C)NC(=O)[C@@H]2C[C@@H](O)CN2C(=O)[C@@H](c2cc(OCCC3CCN(C(=O)[C@H]4C[C@H](CN5CCC(n6cc(-c7cc(-c8ccccc8O)nnc7N)cn6)CC5)C4)CC3)no2)C(C)C)cc1
5. Cc1ncsc1-c1ccc([C@H](C)NC(=O)[C@@H]2C[C@@H](O)CN2C(=O)[C@H](c2cc(OCC#CC34CC(CNC5CC(Oc6cc(N7C8CC[C@@H]7CN(c7cc(-c9ccccc9O)nnc7N)C8)ccn6)C5)(C3)C4)no2)C(C)C)cc1 (some centres unmarked)

["< 2.5 nM", "< 2.5 nM", "> 30 nM", "> 30 nM", "10 to 30 nM"]

###

# target-or-system: BRM (Homo sapiens, UniProt P51531)
# Construct: In-Cell Western Screen of BRM Degradation in SW1573 Cells; endogenous in cells; host or cells: SW1573
# assay-overview: In-cell Western screen of BRM degradation in SW1573 cells (Dmax and DC50)
# Format: cell-based
# condition-summary: target protein degradation; read-out: BRM DC50
Kindly state DC50 for each of the entries shown.

Some entries whose results are on file:
>>> result("Cc1n[nH]c(C)c1-c1ccc([C@H](C)NC(=O)[C@@H]2C[C@@H](O)CN2C(=O)[C@H](c2cc(OCCN3CCC(O[C@H]4C[C@H](Oc5cc(N6C7CCC6CN(c6cc(-c8ccccc8O)nnc6N)C7)ccn5)C4)CC3)no2)C(C)C)cc1")
"10 to 30 nM"
>>> result("Cc1ncsc1-c1ccc([C@H](C)NC(=O)[C@@H]2C[C@@H](O)CN2C(=O)[C@@H](c2cc(OCC(F)(F)CN3CCC(O[C@H]4C[C@H](Oc5cc(N6C7CCC6CN(c6cc(-c8ccccc8O)nnc6N)C7)ccn5)C4)CC3)no2)C(C)C)cc1")
"< 2.5 nM"
>>> result("Cc1ncsc1-c1ccc([C@H](C)NC(=O)[C@@H]2C[C@@H](O)CN2C(=O)[C@H](c2cc(N3CCC(CC4CCN(C[C@H]5C[C@H](Oc6cc(N7C8CCC7CN(c7cc(-c9ccccc9O)nnc7N)C8)ccn6)C5)CC4)CC3)no2)C(C)C)cc1")
"> 30 nM"

Here is the next item to consider.
# input molecule: Cc1ncsc1-c1ccc([C@H](C)NC(=O)[C@@H]2C[C@@H](O)CN2C(=O)[C@H](c2cc(OCCC3CCN(C(=O)[C@H]4C[C@@H](CN5CCC([C@@H](C)n6cc(-c7cc(-c8ccccc8O)nnc7N)cn6)CC5)C4)CC3)no2)C(C)C)cc1 ; wanted: its DC50
< 2.5 nM

###

# target-or-system: BRM (Homo sapiens, UniProt P51531)
# Construct: In-Cell Western Screen of BRM Degradation in SW1573 Cells; endogenous in cells; host or cells: SW1573
# assay-overview: In-cell Western screen of BRM degradation in SW1573 cells (Dmax and DC50)
# Assay type: cell-based
# condition-summary: SW1573; % degraded; when tested at the top concentration of between 0.3 and 10 μM; read-out: BRM Dmax (%)
recorded-endpoint: Dmax

Example cases with answers are listed next.
>>> result("Cc1ncsc1-c1ccc([C@H](C)NC(=O)[C@@H]2C[C@@H](O)CN2C(=O)[C@H](c2cc(OCCC3CCN(CCOc4cc(N5C6CCC5CN(c5cc(-c7ccccc7O)nnc5N)C6)ccn4)CC3)no2)C(C)C)cc1 [compound 510]")
"> 75%"
>>> result("Cc1ncsc1-c1cnc([C@H](C)NC(=O)[C@@H]2C[C@@H](O)CN2C(=O)[C@@H](c2cc(OCCN3CCC(O[C@H]4C[C@H](Oc5cc(N6C7CCC6CN(c6cc(-c8ccccc8O)nnc6N)C7)ccn5)C4)CC3)no2)C(C)C)cn1 [compound 491]")
"> 75%"
>>> result("Cc1ncsc1-c1ccc([C@H](C)NC(=O)[C@@H]2C[C@@H](O)CN2C(=O)[C@@H](c2cc(C#CCN3CCC(O[C@H]4C[C@H](Oc5cc(N6C7CCC6CN(c6cc(-c8ccccc8O)nnc6N)C7)ccn5)C4)CC3)no2)C(C)C)cc1 [compound 380]")
"> 75%"
>>> result("Cc1ncsc1-c1ccc([C@H](C)NC(=O)[C@@H]2C[C@@H](O)CN2C(=O)[C@H](c2cc(N3CCC(O[C@H]4C[C@H](Oc5cc(N6C7CCC6CN(c6cc(-c8ccccc8O)nnc6N)C7)ccn5)C4)CC3)no2)C(C)C)cc1 [compound 403]")
"> 75%"

Now examine the next entry.
Find the measured Dmax: item Cc1ncsc1-c1ccc([C@H](C)NC(=O)[C@@H]2C[C@@H](O)CN2C(=O)[C@@H](c2cc(N3CCC(CC4CCN(C[C@H]5C[C@H](Oc6cc(N7C8CCC7CN(c7cc(-c9ccccc9O)nnc7N)C8)ccn6)C5)CC4)CC3)no2)C(C)C)cc1 [compound 473] , target or system BRM (Homo sapiens, UniProt P51531).
> 75%
